# Tested on: zfTac3rb
# experimental.protocol: Receptor transactivation assay, SRE-Luc reporter (PKC activation), COS-7 cells expressing zfTac3rb
# Assay type: cell-based, zebrafish
# details: Table 5; COS-7 cells, SRE-Luc follows PKC activation; mean ± SEM; read-out: EC50 SRE-Luc zfTac3rb
Where a SMILES comes first, the peptide text is derived from it.
reported.property: EC50 (nM)
A number alone suffices; assume nM.

-- ask What measured EC50 goes with CC[C@H](C)[C@H](NC(=O)[C@H](CC(=O)O)NC(=O)[C@H](Cc1c[nH]cn1)NC(=O)[C@H](CCSC)NC(=O)[C@@H](N)CCC(=O)O)C(=O)N[C@@H](Cc1ccccc1)C(=O)N[C@H](C(=O)NCC(=O)N[C@@H](CC(C)C)C(=O)N[C@@H](CCSC)C(N)=O)C(C)C [zfNKBa] (H-EMHDIFVGLM-NH2) ?
-- reply 1.47
